These entries and their values trace back to patent US20250136677A1.

# EXPERIMENTAL TARGET: T1, wildtype feline IL-31 protein (Feline_IL31_wildtype) (feline)
# T1 construct: Full length feline IL-31 with C-terminal His tag, secreted from ExpiCHO cells; also called fIL-31
# T1 chain: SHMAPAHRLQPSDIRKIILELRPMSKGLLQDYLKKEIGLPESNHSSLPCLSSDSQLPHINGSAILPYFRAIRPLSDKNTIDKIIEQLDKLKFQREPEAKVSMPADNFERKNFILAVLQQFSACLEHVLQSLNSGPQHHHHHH
# TEST: SPR (Biacore), IL-31 on chip, 1:1 fit
Assignment: determine reported Kd for the given binders.
Answer format: numeric, nM implied, no suffix.

Input Feline 15H05 1.1 FW2 (antibody, V domains shown, also called felinized 15H05 1.1 FW2) VH: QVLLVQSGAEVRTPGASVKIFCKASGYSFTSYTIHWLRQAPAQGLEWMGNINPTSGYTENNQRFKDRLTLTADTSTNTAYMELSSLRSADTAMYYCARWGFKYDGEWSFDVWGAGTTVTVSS VL: EIQMTQSPSSLSASPGDRVTITCRASQGISIWLSWYQQKPGNIPKVLINKASNLHIGVPSRFSGSGSGTDFTLTISSLEPEDAATYYCLQSQTYPLTFGGGTKLEIK . Output Kd: 0.065

Input Feline 15H05 VH3 mouse VL (antibody, V domains shown, Heterochimeric antibody; also called felinized 15H05 VH3 with mouse 15H05 VL (heterochimera)) VH: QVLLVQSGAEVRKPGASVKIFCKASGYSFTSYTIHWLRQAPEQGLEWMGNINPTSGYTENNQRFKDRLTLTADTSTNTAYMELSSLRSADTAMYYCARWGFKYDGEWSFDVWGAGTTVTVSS VL: DIQMNQSPSSLSASLGDTITVTCRASQGISIWLSWYQQKPGNIPKVLINKASNLHIGVPPRFSGSGSGTHFTLTITSLQPEDIATYYCLQSQTYPLTFGGGTKLEIN . Output Kd: 0.177

Input Feline 15H05 1.1 FW1 (antibody, V domains shown) VH: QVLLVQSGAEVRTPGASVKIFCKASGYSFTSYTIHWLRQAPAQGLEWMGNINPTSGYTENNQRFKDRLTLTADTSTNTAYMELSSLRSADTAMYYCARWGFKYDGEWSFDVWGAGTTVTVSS VL: DIQMNQSPSSLSASLGDTITVTCRASQGISIWLSWYQQKPGKVPKLLIYKASNLHIGVPSRFSGSGSGTDFTLTISSLEPEDAATYYCLQSQTYPLTFGGGTKLEIK . Output Kd: 564

Input Feline 15H05 2.2 (antibody, V domains shown, Feline heavy and kappa constant regions) VH: QVLLVQSGAEVRTPGASVKIFCKASGYGFTSYTIHWVRQSPAQGLEWMGNINPTSGYTENNQRFKDRLTLTADTSTNTAYMELSSLRSADTAMYYCARWGFKYDGEWSFDVWGAGTTVTVSS VL: EITMTQSPGSLAGSPGQQVTMNCRASQGISIWLSWYQQKPGQHPKLLIYKASNLHIGVPDRFSGSGSGTDFTLTISNLQAEDVASYYCLQSQTYPLTFGGGTKLEIK . Output Kd: 2.15

Input Feline 15H05 1.1 L46V (antibody, V domains shown) VH: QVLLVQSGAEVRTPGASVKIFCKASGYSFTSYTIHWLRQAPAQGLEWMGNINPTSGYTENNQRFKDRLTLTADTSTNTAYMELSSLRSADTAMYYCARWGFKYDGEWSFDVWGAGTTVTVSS VL: EIQMTQSPSSLSASPGDRVTITCRASQGISIWLSWYQQKPGKVPKVLIYKASNLHIGVPSRFSGSGSGTDFTLTISSLEPEDAATYYCLQSQTYPLTFGGGTKLEIK . Output Kd: 22.8

Input Feline 15H05 1.1 K42N_V43I (antibody, V domains shown) VH: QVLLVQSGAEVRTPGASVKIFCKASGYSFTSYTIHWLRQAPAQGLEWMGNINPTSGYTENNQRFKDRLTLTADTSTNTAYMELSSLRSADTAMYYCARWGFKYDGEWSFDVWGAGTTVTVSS VL: EIQMTQSPSSLSASPGDRVTITCRASQGISIWLSWYQQKPGNIPKLLIYKASNLHIGVPSRFSGSGSGTDFTLTISSLEPEDAATYYCLQSQTYPLTFGGGTKLEIK . Output Kd: 9.42

Input Feline 15H05 1.1 K42N (antibody, V domains shown) VH: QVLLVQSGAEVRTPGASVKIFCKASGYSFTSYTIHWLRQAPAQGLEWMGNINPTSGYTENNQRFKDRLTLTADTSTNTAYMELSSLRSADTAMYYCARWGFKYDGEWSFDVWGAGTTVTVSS VL: EIQMTQSPSSLSASPGDRVTITCRASQGISIWLSWYQQKPGNVPKLLIYKASNLHIGVPSRFSGSGSGTDFTLTISSLEPEDAATYYCLQSQTYPLTFGGGTKLEIK . Output Kd: 6770

Input Feline_11E12 1.1_K46Q (antibody, V domains shown, felinized 11E12 with the single VL substitution K46Q; copies: 2 + 2) VH: QVLLVQSGAEVKKPGASVKIFCKASGYSFTYYDINWLRQAPEQGLEWMGWIFPGDGGTKYNETFKGRLTLTADTSTNTVYMELSSLRSADTAMYYCARGGTSVIRDAMDYWGQGALVTVSS VL: EIQMTQSPSSLSASPGDRVTITCRASESVDNYGISFMHWYQQKPGQVPKLLIYRASNLESGVPSRFSGSGSGTDFTLTISSLEPEDAATYYCQQSNKDPLTFGQGTKLEIK . Output Kd: 12.6

Input Feline 15H05 VH1 mouse VL (antibody, V domains shown, Heterochimeric antibody; also called felinized 15H05 VH1 with mouse 15H05 VL (heterochimera)) VH: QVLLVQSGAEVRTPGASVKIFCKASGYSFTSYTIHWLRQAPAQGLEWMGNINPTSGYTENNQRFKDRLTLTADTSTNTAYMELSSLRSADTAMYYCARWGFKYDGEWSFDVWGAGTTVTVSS VL: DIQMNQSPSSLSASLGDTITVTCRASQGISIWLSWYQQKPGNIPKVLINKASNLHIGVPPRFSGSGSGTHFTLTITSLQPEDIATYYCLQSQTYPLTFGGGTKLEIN . Output Kd: 0.168

Input Feline 15H05 1.1 FW2_3 (antibody, V domains shown) VH: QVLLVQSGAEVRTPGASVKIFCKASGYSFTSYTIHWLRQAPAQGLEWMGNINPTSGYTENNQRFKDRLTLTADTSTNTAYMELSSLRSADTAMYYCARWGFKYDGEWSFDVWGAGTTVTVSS VL: EIQMTQSPSSLSASPGDRVTITCRASQGISIWLSWYQQKPGNIPKVLINKASNLHIGVPPRFSGSGSGTHFTLTITSLQPEDIATYYCLQSQTYPLTFGGGTKLEIK . Output Kd: 123
